Tested on: HuM2e antibody 23K12
Assay type: binding, human
Recorded measurements of Signal (peptides that bind to 23K21 and 8I10), one per entry
MEASURED_PROPERTY: Signal (peptides that bind to 23K21 and 8I10)

INSERT INTO measurements (substance, subject_of_test, data_value) VALUES
  ('520 (VLLTEVETPIRNEWGCRCNDSSD; epitope peptide) [compound 520]', 'HuM2e antibody 23K12', 1014),
  ('601 (SLLTECGSCLTEV; epitope peptide) [compound 601]', 'HuM2e antibody 23K12', 830),
  ('295 (MSLCTEVGMSCLTEV; epitope peptide) [compound 295]', 'HuM2e antibody 23K12', 2026),
  ('657 (SLLTEVDTPIRNEWGCRCNDSSD; epitope peptide) [compound 657]', 'HuM2e antibody 23K12', 751),
  ('304 (MSLCTEVGMSLLCEV; epitope peptide) [compound 304]', 'HuM2e antibody 23K12', 1935),
  ('428 (SLLTEVETPIRNEWGCRCNDSPD; epitope peptide) [compound 428]', 'HuM2e antibody 23K12', 772),
  ('539 (SLLTEYETPIRNEWGCRCNDSSD; epitope peptide) [compound 539]', 'HuM2e antibody 23K12', 950),
  ('484 (SLVTEVETPIRNEWGCRCNDSSD; epitope peptide) [compound 484]', 'HuM2e antibody 23K12', 1175),
  ('386 (SLLTEVETPIRNEVGCRCNDSSD; epitope peptide) [compound 386]', 'HuM2e antibody 23K12', 1371),
  ('597 (SLLTEVETGIRNEWGCRCNDSSD; epitope peptide) [compound 597]', 'HuM2e antibody 23K12', 835),
  ('411 (SLLTEVETPIRNEWGCRCNDMSD; epitope peptide) [compound 411]', 'HuM2e antibody 23K12', 744),
  ('380 (SLLTEVETPIRNTWGCRCNDSSD; epitope peptide) [compound 380]', 'HuM2e antibody 23K12', 1409),
  ('677 (SLLTEVETPIQNEWGCRCNDSSD; epitope peptide) [compound 677]', 'HuM2e antibody 23K12', 731),
  ('360 (CSLLTECGCSLLTEV; epitope peptide) [compound 360]', 'HuM2e antibody 23K12', 1534),
  ('361 (SCLCECGCSLLTEC; epitope peptide) [compound 361]', 'HuM2e antibody 23K12', 1520),
  ('608 (SLLTEIETPIRNEWGCRCNDSSD; epitope peptide) [compound 608]', 'HuM2e antibody 23K12', 816),
  ('355 (SCLCECGCSLLTEV; epitope peptide) [compound 355]', 'HuM2e antibody 23K12', 1555),
  ('648 (SLLTEVETPIRNEWGKRCNDSSD; epitope peptide) [compound 648]', 'HuM2e antibody 23K12', 762),
  ('473 (SLSTEVETPIRNEWGCRCNDSSD; epitope peptide) [compound 473]', 'HuM2e antibody 23K12', 1217),
  ('560 (SLLTEVETPIRNEWGCRCFDSSD; epitope peptide) [compound 560]', 'HuM2e antibody 23K12', 894),
  ('303 (CSLLTEVGMCLLTEV; epitope sequence) [compound 303]', 'HuM2e antibody 23K12', 1941),
  ('676 (SLLTEVETPIENEWGCRCNDSSD; epitope peptide) [compound 676]', 'HuM2e antibody 23K12', 731),
  ('301 (SLLCEVGCSLLTEC; epitope sequence) [compound 301]', 'HuM2e antibody 23K12', 1959),
  ('445 (SLLTEVETPIRNEWGCRCN; epitope peptide) [compound 445]', 'HuM2e antibody 23K12', 977),
  ('588 (SLLTEVETPIRNEWGCRCNCSSD; epitope peptide) [compound 588]', 'HuM2e antibody 23K12', 848),
  ('519 (SLLTEVETPIRNEWGCRSNDSSD; epitope peptide) [compound 519]', 'HuM2e antibody 23K12', 1016),
  ('606 (SLLTEVETQIRNEWGCRCNDSSD; epitope peptide) [compound 606]', 'HuM2e antibody 23K12', 819),
  ('289 (MSLCTEVGMSLCTEV; epitope peptide) [compound 289]', 'HuM2e antibody 23K12', 2153),
  ('438 (SLLTEVETPIRN; epitope peptide) [compound 438]', 'HuM2e antibody 23K12', 751),
  ('340 (MSCLCECGCSLLTEC; epitope peptide) [compound 340]', 'HuM2e antibody 23K12', 1652),
  ('584 (SLLTEVETPIRNEWGCRRNDSSD; epitope peptide) [compound 584]', 'HuM2e antibody 23K12', 855);
